The reported numbers originate from PubChem BioAssay (NCI).

- Test system: NCI/ADR-RES ovarian
- ASSAY NAME: NCI-60 one-dose screen, 48 h
- TEST SETTINGS: 10 µM unless noted
This is part of a sample that, as a whole, favours compounds with a hit. Of some 83,000 tested, about 20% had one in any assay. The source made the active and inactive calls. The calls were made as follows: active = growth percent below 10; inactive = the rest.
Lab note: assign the record to one of y for active, n for inactive

Hi team, can someone confirm the assay call for CC1(C)OCC2OC3(C(=O)O)OC(C)(C)OC3C2O1 (centres undefined) ?
n

Record lookup: outcome of this test for `CCCNc1nc(SC)nc(-c2cccc(N)c2)c1C#N` ?
n

Next:
Assay result, entry `CC(=O)/C(=C/c1cccc(Cl)c1)C(=O)c1ccccc1` — outcome?
n

For `Cn1c2c(Cl)c(Cl)ccc2c2ccn3c(=O)c4ccccc4nc3c21` , which call appears in the assay record?
n

Hi team, can someone confirm the assay call for `CCN1CCN(Cc2ccc(NC(=O)Nc3nc4ccc(Oc5ccnc(C(=O)NC)c5)cc4s3)cc2C(F)(F)F)CC1` ?
y

Answer briefly: the call reported for `O=C(N/N=C/c1ccc(O)cc1O)c1cccnc1` in this assay.
n

Outcome? `CC(C)c1c(C(=O)Nc2ccccc2)c(-c2ccccc2)c(-c2ccc(F)cc2)n1CC[C@@H]1CC=CC(=O)O1`
y

Which outcome did this test record for the compound `O=S(=O)(NCCCNc1cc(-c2cn(-c3ccccc3)nc2-c2cccc(O)c2)ccn1)c1ccccc1` ?
n

# fetch the recorded call for `CC(C)[C@@H]1CC[C@]2(C(=O)NCCCCN=C(N)N)CC[C@]3(C)[C@H](CC[C@@H]4[C@@]5(C)CCC(=O)C(C)(C)[C@@H]5CC[C@]43C)[C@@H]12` here
n

Can you look up the reported call for `COC(/C=C/c1ccc([N+](=O)[O-])cc1)OC` for me?
n

Test call, this compound: `CN(C)c1ccc(/C=C\C2=[N+](C)c3ccccc3C2(C)C)cc1`
n

Tell me the recorded outcome of this test for `COc1ccc(/C=C/C(=O)c2ccc(NC(=O)c3cc4cc5ccccc5nc4s3)cc2)cc1OC` .
n

Test call for this compound, please: `Clc1nc(Cl)c2c3c(sc2n1)CCCC3`
n

Dear colleague, could you share the recorded outcome for CCOC(=O)C(C#N)C1CCCCC1 (centres undefined) when you have a moment?
n

I would be grateful if you could indicate the recorded call for `Cc1ccc(NC(=O)c2sc3nc4c(cc3c2N)C(=O)CCC4)cc1C` .
n

What is the recorded call for this compound in the test? `COc1ccc(-c2cn3c(ccc4ccccc43)n2)cc1`
n

Lab log entry: `CCCCCCCCCCCCCCCCNCCC[C@@H](C)[C@H]1CC[C@H]2[C@@H]3[C@H](OCCCN)C[C@@H]4C[C@H](OCCCN)CC[C@]4(C)[C@H]3C[C@H](OCCCN)[C@]12C` — outcome as called in the assay?
y

Given COC1/C=C\OC2(C)Oc3c(C)c(O)c4c(O)c(c(CN(C)CCO)c(O)c4c3C2=O)NC(=O)/C(C)=C\C=C/C(C)C(O)C(C)C(O)C(C)C(OC(C)=O)C1C (centres undefined) , state the outcome it received in this test.
n

Recorded call for `COc1cc(NCCCCN=C(N)NC(N)=NC(C)C)c2ncccc2c1` ?
n

---

- Tested on: NCI-H23 lung
- ASSAY NAME: NCI-60 one-dose screen, 48 h (100 = growth as untreated, 0 = no growth, -100 = all killed)
- TEST SETTINGS: 10 µM unless noted
This is part of a sample that, as a whole, favours compounds with a hit. Of some 83,000 tested, about 20% had one in any assay.
Mark 1 only for growth values smaller than 70%; exact matches and larger values are -1.

Problem: For the molecule `CN(C)c1ccc(/C=C(\C#N)c2nc3ccccc3s2)cc1` , is growth under 70%?
-1

More entries:
Lab log: compare recorded growth with 70%; is it strictly lower for `Nc1c(C(=O)Nc2ccccc2Cl)sc2nc3c(cc12)CCCCCC3` ?
-1

I wonder whether `O=C(/C=C/c1ccc(Cl)cc1)c1ccc(O)c(CN2CCN(c3cc4c(cc3F)c(=O)c(C(=O)O)cn4C3CC3)CC2)c1` has growth below 70%. Can you tell?
1

# strict comparison: is reported growth < 70%? input = CCCCCCCCCCCCCCCC(=O)OCC1OC(n2cnc3c(=S)nc(N)[nH]c32)C(OC(=O)CCCCCCCCCCCCCCC)C1OC(=O)CCCCCCCCCCCCCCC (centres undefined)
1

Given the entry `C(=N\Nc1ccccn1)/c1ccccn1` , would its reported growth be below 70%?
1
